# Test system: Fibroblast
# method-description: Multiplex assay against human fibroblast
# Format: toxicity, cell-based
# test-settings: 48 h, 1 µM, compound concentration 1 uM
endpoint: Population Normal (%)
Hi! Could you send only the number? It should be in %, unit omitted.

In [3]: df
Out[3]:
                               given_smiles               endpoint  experimental_result
0  N#Cc1c(N)nc(SCc2csc(-c3ccc(Cl)cc3)n2)c(C#N)c1-c1ccc(OCCO)cc1  Population Normal (%)                   97
1  Cl.c1ccc2c(c1)CCC[C@H]2Nc1nc2ccccc2[nH]1  Population Normal (%)                  100
2  COCCNc1nc2ccc(C#CC3(O)CCCCC3)cc2n1-c1ccnc(N)n1  Population Normal (%)                  100
3  CCn1cnc2c(-c3ccc(F)c(-c4ccc(S(=O)(=O)CC)cc4OC)c3)cnnc21  Population Normal (%)                  100

Give Fibroblast Population Normal (%) for the following molecule: O=C1c2c(Br)c(Br)c(Br)c(Br)c2C(=O)N1c1ncc[nH]1
100

Give Fibroblast Population Normal (%) for the following molecule: CN(C)Cc1cccc(NC(=C2C(=O)Nc3cc(C(N)=O)ccc32)c2ccccc2)c1
100

Give Fibroblast Population Normal (%) for the following molecule: COc1ccc(Cl)cc1[C@]1(F)C(=O)Nc2cc(C(F)(F)F)ccc21
100

Give Fibroblast Population Normal (%) for the following molecule: O=c1ccc2ccc(OCCCCN3CCN(c4cccc5sccc45)CC3)cc2[nH]1
95

Give Fibroblast Population Normal (%) for the following molecule: COCCNc1cc(NC(=O)N2CCCc3cc(CN4CCOCC4=O)c(C=O)nc32)ncc1C#N
100
